Listed below are molecules with pIC50 for Histamine H4 receptor (Homo sapiens, UniProt Q9H3N8), each taken from published literature.
pIC50: −log10 of the molar value.

| smiles.entry | tested.on | parameter.measured | recorded.value |
| --- | --- | --- | --- |
| COc1cccc2c1O[C@@H](c1ccc(OCCCN3CCCC3)cc1)[C@H](C)S2(=O)=O | Histamine H4 receptor (Homo sapiens, UniProt Q9H3N8) | pIC50 | < 5.00 |
| Cc1nc2cccc(C(F)(F)F)c2c(=O)n1-c1ccc(OCCCN2CCCC2)cc1 | Histamine H4 receptor (Homo sapiens, UniProt Q9H3N8) | pIC50 | < 5.00 |
| CCCNCc1ccc(CCn2ccc(OCc3ccc(F)cc3)cc2=O)cc1 | Histamine H4 receptor (Homo sapiens, UniProt Q9H3N8) | pIC50 | < 5.30 |
| O=c1c2ccccc2c(Cc2ccc(Cl)cc2)nn1C[C@H]1CCCN1CCCCc1ccc(OCCCN2CCCCCC2)cc1 | Histamine H4 receptor (Homo sapiens, UniProt Q9H3N8) | pIC50 | 5.00 |
| Cn1c(-c2ccc(OCCCN3CCCC3)cc2)nc2ccccc2c1=O | Histamine H4 receptor (Homo sapiens, UniProt Q9H3N8) | pIC50 | < 5.00 |

Item: CCCNCc1ccc(CCn2ccc(OCc3ccc(F)cc3)cc2=O)nc1 | pIC50: < 5.30

Item: COc1ccc2c(c1)C(=O)O[C@]21CC[C@H](C(=O)N(C)CCN2CCCCC2)CC1 | pIC50: < 5.00
